- assay.method.text: Effect of filament density, poration energy and filament array size on PK profile (Examples 7-9)
- Design: species or system guinea pigs
- condition.details: guinea pig, in vivo, topical or ocular, 0.5 mg, Table 17 #1: dose 0.50 mg, 4 mJ/filament, filament array area 1.0 cm^2, 400 filaments/cm^2
quantity.name: AUC (ng·h/mL)
Respond numerically; units are ng·h/mL and should not be typed.

Query :: // lookup AUC for CN(C)CCc1c[nH]c2ccc(C[C@H]3COC(=O)N3)cc12
Result :: 364

----------
- assay.method.text: Effect of filament density, poration energy and filament array size on PK profile (Examples 7-9)
- Design: species or system guinea pigs
- condition.details: guinea pig, in vivo, sc, 2 mg, Table 15 # 1: 400 filaments/cm^2, 2 mJ/filament, 1.0 cm^2; 2.00 mg patch; relative bioavailability against SC injection; read-out: Bioavailability ± SE
quantity.name: bioavailability (%)
Respond numerically; units are % and should not be typed.

Query :: // lookup bioavailability for CN(C)CCc1c[nH]c2ccc(C[C@H]3COC(=O)N3)cc12
Result :: 72.4

----------
- assay.method.text: Effect of filament density, poration energy and filament array size on PK profile (Examples 7-9)
- Parameters: species or system guinea pigs
- condition.details: guinea pig, in vivo, topical or ocular, 2 mg, Table 13 # 6: 400 filaments/cm^2, 4 mJ/filament, area 1.0 cm^2; patch 2.00 mg Zolmitriptan
quantity.name: AUC

Query :: // lookup AUC for CN(C)CCc1c[nH]c2ccc(C[C@H]3COC(=O)N3)cc12
Result :: 2100 ng·h/mL

----------
- assay.method.text: Administration route study in guinea pigs (Example 5)
- Type: in vivo
- condition.details: guinea pig, blood, Group 1: 10 mg base/4 ml, oral route
quantity.name: AUC (ng·h/mL)
Respond numerically; units are ng·h/mL and should not be typed.

Query :: // lookup AUC for CN(C)CCc1c[nH]c2ccc(C[C@H]3COC(=O)N3)cc12 [Zolmitriptan]
Result :: 1390

----------
- assay.method.text: Effect of filament density, poration energy and filament array size on PK profile (Examples 7-9)
- Set-up: species or system guinea pigs
- condition.details: guinea pig, in vivo, topical or ocular, 2 mg, Table 15 # 1: 400 filaments/cm^2, 2 mJ/filament, area 1.0 cm^2; patch 2.00 mg Zolmitriptan
quantity.name: Tmax (h)
Respond numerically; units are h and should not be typed.

Query :: // lookup Tmax for CN(C)CCc1c[nH]c2ccc(C[C@H]3COC(=O)N3)cc12
Result :: 2.33

----------
- assay.method.text: Effect of filament density, poration energy and filament array size on PK profile (Examples 7-9)
- Design: species or system guinea pigs
- condition.details: guinea pig, in vivo, sc, 2 mg, Table 13 # 5: 200 filaments/cm^2, 4 mJ/filament, 1.0 cm^2; 2.00 mg patch; relative bioavailability against SC injection; read-out: Bioavailability ± SE
quantity.name: bioavailability
// unit must come after the numeric part

Query :: // lookup bioavailability for CN(C)CCc1c[nH]c2ccc(C[C@H]3COC(=O)N3)cc12
Result :: 49.9%

----------
- assay.method.text: Effect of filament density, poration energy and filament array size on PK profile (Examples 7-9)
- Parameters: species or system guinea pigs
- condition.details: guinea pig, in vivo, topical or ocular, 2 mg, Table 13 # 5: 200 filaments/cm^2, 4 mJ/filament, area 1.0 cm^2; patch 2.00 mg Zolmitriptan
quantity.name: Cmax (ng/mL)
Respond numerically; units are ng/mL and should not be typed.

Query :: // lookup Cmax for CN(C)CCc1c[nH]c2ccc(C[C@H]3COC(=O)N3)cc12 [Zolmitriptan]
Result :: 423

----------
- assay.method.text: Effect of filament density, poration energy and filament array size on PK profile (Examples 7-9)
- Set-up: species or system guinea pigs
- condition.details: guinea pig, in vivo, topical or ocular, 2 mg, Table 13 # 3: 400 filaments/cm^2, 3 mJ/filament, area 1.0 cm^2; patch 2.00 mg Zolmitriptan
- Protocol: This example describes various effects of filament density. To investigate the effect of filament density on PK profile and side effects (pain by poration and skin irritation), these studies were conducted. The filament density mainly affects the area to be utilized for the transfer of body fluid and ingredients in between skin and patch. The range of filament density was 100 filaments/cm^2 to 400 filaments/cm^2, and the poration energy was from 3 to 4 mJ/filament. […]
quantity.name: Tmax (h)
Respond numerically; units are h and should not be typed.

Query :: // lookup Tmax for CN(C)CCc1c[nH]c2ccc(C[C@H]3COC(=O)N3)cc12
Result :: 1.63

----------
- assay.method.text: Effect of filament density, poration energy and filament array size on PK profile (Examples 7-9)
- Parameters: species or system guinea pigs
- condition.details: guinea pig, in vivo, topical or ocular, 4 mg, Table 17 # 4: dose 4.00 mg, 4 mJ/filament, filament array area 1.5 cm^2, 400 filaments/cm^2
quantity.name: AUC (ng·h/mL)
Respond numerically; units are ng·h/mL and should not be typed.

Query :: // lookup AUC for CN(C)CCc1c[nH]c2ccc(C[C@H]3COC(=O)N3)cc12
Result :: 3660

----------
- assay.method.text: Effect of filament density, poration energy and filament array size on PK profile (Examples 7-9)
- Parameters: species or system guinea pigs
- condition.details: guinea pig, in vivo, topical or ocular, 2 mg, Table 13 # 4: 100 filaments/cm^2, 4 mJ/filament, area 1.0 cm^2; patch 2.00 mg Zolmitriptan
quantity.name: Tmax (h)
Respond numerically; units are h and should not be typed.

Query :: // lookup Tmax for CN(C)CCc1c[nH]c2ccc(C[C@H]3COC(=O)N3)cc12 [Zolmitriptan]
Result :: 2.75

----------
- assay.method.text: Effect of filament density, poration energy and filament array size on PK profile (Examples 7-9)
- Set-up: species or system guinea pigs
- condition.details: guinea pig, in vivo, topical or ocular, 2 mg, Table 17 # 2: dose 2.00 mg, 4 mJ/filament, filament array area 1.0 cm^2, 400 filaments/cm^2
quantity.name: Tmax
// unit must come after the numeric part

Query :: // lookup Tmax for CN(C)CCc1c[nH]c2ccc(C[C@H]3COC(=O)N3)cc12
Result :: 1.06 h

----------
- assay.method.text: Administration route study in guinea pigs (Example 5)
- Type: in vivo
- condition.details: guinea pig, blood, Group 2: 5 mg base/2 ml, oral route
quantity.name: Tmax (min)
Respond numerically; units are min and should not be typed.

Query :: // lookup Tmax for CN(C)CCc1c[nH]c2ccc(C[C@H]3COC(=O)N3)cc12
Result :: 33.6

----------
- assay.method.text: Administration route study in hairless rats with Sumatriptan Succinate (Example 10)
- condition.details: rat, in vivo, topical or ocular, 9 mg
quantity.name: Tmax (h)
Respond numerically; units are h and should not be typed.

Query :: // lookup Tmax for CNS(=O)(=O)Cc1ccc2[nH]cc(CCN(C)C)c2c1 [Sumatriptan Succinate]
Result :: 1.1

----------
- assay.method.text: Administration route study in hairless rats (Example 4)
- Assay type: in vivo
- condition.details: rat, blood, Group 3: 2 mg zolmitriptan, intravenous injection
- Description: Hairless rats were used as experimental animals. After oral administration of a drug solution (2.0 ml) containing 2.0 mg of zolmitriptan, blood was collected at a desired time, each medicinal component was extracted according to a conventional method, then blood concentration was quantified by high performance liquid chromatography (LC-MS/MS). Hairless rats were used as experimental animals. […]
quantity.name: Cmax (µg/mL)
Respond numerically; units are µg/mL and should not be typed.

Query :: // lookup Cmax for CN(C)CCc1c[nH]c2ccc(C[C@H]3COC(=O)N3)cc12 [Zolmitriptan]
Result :: 5.03

----------
- assay.method.text: in vivo
- condition.details: hairless, rat, sc, 6 mg
quantity.name: Cmax (ng/mL)
Respond numerically; units are ng/mL and should not be typed.

Query :: // lookup Cmax for CNS(=O)(=O)Cc1ccc2[nH]cc(CCN(C)C)c2c1 [Sumatriptan Succinate]
Result :: 9780

----------
- assay.method.text: Effect of filament density, poration energy and filament array size on PK profile (Examples 7-9)
- Set-up: species or system guinea pigs
- condition.details: guinea pig, in vivo, topical or ocular, 2 mg, Table 13 # 1: 100 filaments/cm^2, 3 mJ/filament, area 1.0 cm^2; patch 2.00 mg Zolmitriptan
quantity.name: AUC (ng·h/mL)
Respond numerically; units are ng·h/mL and should not be typed.

Query :: // lookup AUC for CN(C)CCc1c[nH]c2ccc(C[C@H]3COC(=O)N3)cc12
Result :: 238

----------
- assay.method.text: in vivo
- condition.details: hairless, rat, topical or ocular, 6 mg
quantity.name: AUC (ng·h/mL)
Respond numerically; units are ng·h/mL and should not be typed.

Query :: // lookup AUC for CNS(=O)(=O)Cc1ccc2[nH]cc(CCN(C)C)c2c1 [Sumatriptan Succinate]
Result :: 3810

----------
- assay.method.text: Administration route study in guinea pigs (Example 5)
- Type: in vivo
- condition.details: guinea pig, blood, topical or ocular, Group 4: 2.0 mg base/cm^2, transdermal microporation
quantity.name: Tmax (min)
Respond numerically; units are min and should not be typed.

Query :: // lookup Tmax for CN(C)CCc1c[nH]c2ccc(C[C@H]3COC(=O)N3)cc12
Result :: 30
